Organism: Homo sapiens
ASSAY DETAILS: To identify inhibition of the IFN signalling (Jak-Stat) pathway via expression of an eGFP reporter gene under the control of an IFN-stimulated response element (ISRE) containing MxA promoter.
Type: functional
Design: scale not given: direction of the effect not stated beside the values
RUN PARAMETERS: 30 µM
Percent Effect values for the compounds below.
Give the number; % is assumed, so skip it.

> print(dat)
                                   compound  recorded.result
1  Clc1snnc1CN1CCOC(CNc2cccnn2)C1 (stereo unspecified)           -0.834
2  O=C(c1cc(COc2ccc3c(c2)OCO3)[nH]n1)N1CCOCC1             6.61
3  Cc1nc(CN2CCC3(CC2)NC(=O)CC3c2ccccc2)cs1 (stereo unspecified)             4.58
4        N#Cc1ccccc1OCCN1CCn2c(nnc2C2CC2)C1            -1.08
5  COC(=O)c1ccc(N2CCN(CCC#N)C(C)C2)cc1 (stereo unspecified)                5

Need Percent Effect of `CN1CCCN(C(=O)c2ccc3c(c2)nc(N2CCOCC2)n3C)CC1` , thanks.
21.6

====

Measured Percent Effect values are reported for all entries that follow.
Test system: Trypanosoma cruzi
ASSAY DETAILS: Trypanosoma cruzi phosphomannomutase and mannose-1-phosphate guanylyltransferase assay
Format: functional
Set-up: scale not given: direction of the effect not stated beside the values
RUN PARAMETERS: 10 µM
Please give the number followed by its unit.

Take a look at these entries with their results.
> print(dat)
                                        mol        test.system   quantity.name  recorded.result
1  CS(=O)(=O)N1CC[C@H]2C[C@@H](C(=O)N3CCOCC3)O[C@@H]2C1  Trypanosoma cruzi  Percent Effect           -1.54%
2  CC(C)NC(=O)Nc1ccc(CNCc2cccc(OC(F)F)c2)cc1  Trypanosoma cruzi  Percent Effect           -2.98%
3       CCCNC(=O)CNc1cc(C(=O)N2CCSCC2)ccc1C  Trypanosoma cruzi  Percent Effect            8.73%
4  O=C(NC1CC1)[C@@H]1CCO[C@@H]2CCN(C3CCOCC3)C[C@H]21  Trypanosoma cruzi  Percent Effect            4.62%
5  COCCC(=O)N1CC[C@@H](N(C)C)[C@@H]1Cc1ccccc1  Trypanosoma cruzi  Percent Effect          -0.394%

// returns reported Percent Effect for input `O=C1[C@@H]2CCN(Cc3ccoc3)C[C@@H]2OCCN1c1ccccc1`
-2.95%

====

TEST SYSTEM: Arginase-2, mitochondrial (Homo sapiens)
ASSAY DETAILS: in vitro enzyme assay to detect the production of urea directly proportional to the activity of Arginase II; note: in the data most compounds retested in dose-response had high values
Type: functional
Design: scale not given: direction of the effect not stated beside the values
RUN PARAMETERS: 33.3 µM
QUANTITY NAME: Percent Effect (%)
Give the value in % but do not write % after it.

> print(dat)
                                   compound                               test.system  recorded.result
1  COCCc1noc(CN2CCCCC2Cn2cc(C)cn2)n1 (stereo unspecified)  Arginase-2, mitochondrial (Homo sapiens)            -1.23

Test system Arginase-2, mitochondrial (Homo sapiens); read-out Percent Effect; what value for `Cc1nc([C@@H]2C[C@@H]3CCN(C(=O)c4ccnnc4)C[C@H]3O2)sc1C` ?
1.94

Similarly, Cc1nn2cccnc2c1C(=O)N1CCCC(n2ccnc2)C1 (stereo unspecified) ?
0

====

TEST SYSTEM: Sialic acid-binding Ig-like lectin 9 (Homo sapiens)
ASSAY DETAILS: Hs-Siglec9 ALPHAscreen SOP 20170721
Design: scale not given: direction of the effect not stated beside the values
RUN PARAMETERS: 10 µM
# Percent Effect annotations
Dear colleague, please return just the value in %, with no unit written.

Consider the reported Percent Effect for these molecules:
> print(dat)
                                   molecule  unit.descriptor  recorded.result
1  O=C(NCCNc1ncccn1)C1CC(=O)N(CC(F)(F)F)C1 (stereo unspecified)                %            -3.51
2  Cc1cc(CN(C)C(=O)C2CCCN(C(=O)c3cccs3)C2)no1 (stereo unspecified)                %             10.4
3  O=C(NCc1ccco1)[C@H]1C[C@H]2OCC[C@H]2N(C(=O)c2ccco2)C1                %             1.43
4  Cc1cnn(CC2CN(CCS(=O)(=O)c3ccccc3)CCO2)c1 (stereo unspecified)                %           -0.479
5  COc1ccccc1[C@@H]1CN(C(=O)c2csc(C)n2)C[C@H]1C(=O)O                %            -2.56
6  CC(C)c1nnc(CN2CCCC2Cn2cncn2)o1 (stereo unspecified)                %              3.1

// query Percent Effect value for entry O=S(=O)(C1CC1)N1CCC2(CC1)CC(Oc1cccnc1)CO2 (stereo unspecified)
4.03

Repeat with Cc1nc(C)n(CC2CCCN(c3ncnc4c3CCC4)C2)n1 (stereo unspecified)
-3.72

====

Percent Effect overview
Tested on: Trypanosoma cruzi
ASSAY DETAILS: Trypanosoma cruzi phosphomannomutase and mannose-1-phosphate guanylyltransferase assay
Assay type: functional
Design: scale not given: direction of the effect not stated beside the values
RUN PARAMETERS: 10 µM
Field format: number, assumed %, no unit text.

Use the examples below as a reference point.
> print(dat)
                                   molecule  recorded.result
1       CCc1nnc2n1CCN(Cc1nc(-c3ccoc3)no1)C2             4.22
2  Cc1[nH]c(=O)c(C#N)cc1C(=O)N1C[C@@H](CN2CCCC2)C[C@H](CO)C1            -2.81
3  c1cnc(N2CCOCC3(CCCN(CC4CC4)C3)C2)cn1 (centres undefined)            -1.74
4  O=C(NCc1cc[nH]n1)N(CCCO)C1CCc2ccccc21 (centres undefined)                0

We now examine a further molecule.
Which Percent Effect value belongs to CC(NC(=O)CCn1cncn1)c1nnc2n1CCCCC2 (centres undefined) ?
5.04

====

Entries and their Percent Effect values follow.
TEST SYSTEM: Sialic acid-binding Ig-like lectin 9 (Homo sapiens) (UniProt Q9Y336)
Sequence (Q9Y336 whole entry): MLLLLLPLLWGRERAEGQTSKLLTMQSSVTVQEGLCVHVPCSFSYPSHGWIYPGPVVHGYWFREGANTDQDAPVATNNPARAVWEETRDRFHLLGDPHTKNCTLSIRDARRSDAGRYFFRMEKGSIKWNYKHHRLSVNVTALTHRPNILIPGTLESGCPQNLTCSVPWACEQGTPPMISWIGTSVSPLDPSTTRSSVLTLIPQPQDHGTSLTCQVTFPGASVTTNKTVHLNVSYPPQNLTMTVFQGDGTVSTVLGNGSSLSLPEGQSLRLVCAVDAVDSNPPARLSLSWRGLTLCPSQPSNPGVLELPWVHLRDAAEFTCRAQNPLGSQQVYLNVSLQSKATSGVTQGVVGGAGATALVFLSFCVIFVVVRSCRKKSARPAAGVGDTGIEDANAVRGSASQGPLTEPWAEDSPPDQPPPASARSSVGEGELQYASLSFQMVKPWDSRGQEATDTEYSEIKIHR
ASSAY DETAILS: Hs-Siglec9 ALPHAscreen SOP 20170721
Parameters: scale not given: direction of the effect not stated beside the values
RUN PARAMETERS: 10 µM
Give just the numeric value; % need not be written.

> print(dat)
                                   molecule  unit.descriptor  recorded.result
1  CC(=O)N1CC(=O)N(c2ccccc2)CC12CCN(Cc1nccs1)C2 (stereo unspecified)                %            -1.44
2  CC(=O)N1CCCC1c1cc(N2CCN(C3CCCC3)CC2)cc(C)n1 (stereo unspecified)                %            -8.17
3  CC(C)n1[nH]c(=O)c2c1NC(=O)CC2c1cccnc1 (stereo unspecified)                %             1.14
4  Cc1ccc(C(=O)N2CCC3(CC2)CC(N2CCCC2)C3)cc1                %             1.16
5  COc1ccccc1C(=O)N1CC(Cc2nccc3ccn(C)c23)C1                %             6.36

As a next step, examine the molecule that follows.
# get_value(readout='Percent Effect', item= CN1CCCC(Cc2cncc(C(=O)NCC3CC3)c2)C1 (stereo unspecified) )
0.654

====

Each item that follows carries a reported Percent Effect.
TEST SYSTEM: Chromo domain-containing protein 1 (Saccharomyces cerevisiae (strain ATCC 204508 / S288c) (Baker's yeast))
ASSAY DETAILS: ScCHD-1 Enzyme Inhibition Assay; note: in the data most compounds retested in dose-response had high values
Type: functional
Design: scale not given: direction of the effect not stated beside the values
RUN PARAMETERS: 30 µM
Answer in %, number only, no unit symbol.

> print(dat)
                                   molecule  recorded.result
1    CCOc1ccc2[nH]c(=O)c(CN3CCC(O)CC3)cc2c1           -0.516
2   Cn1cnc(-c2cc(C(=O)N3CCOCC3)c3ccccn23)c1             -3.5
3  Cc1nc(C)n(CC2CCCN2Cc2nc(N)c3ccccc3n2)n1 (stereo unspecified)            -17.8
4  Cc1cc(C(=O)N2CCCC(c3noc(C)n3)C2)[nH]n1 (stereo unspecified)            -9.72
5  CS(=O)(=O)NCC1CCCN(C(=O)c2cc3ccccc3o2)C1 (stereo unspecified)            -10.2
6  CCNC(=O)N1CCN(Cc2nc3ccccc3[nH]2)[C@@H]2CS(=O)(=O)C[C@@H]21            -3.76

Using the record for O=C(c1ccco1)N1CCOCC2(CCN(C3CCOCC3)C2)C1 (stereo unspecified) , report its Percent Effect.
-6.06

Next record, please: O=C(NCCNc1ncccn1)N1CCCC(C(F)(F)F)C1 (stereo unspecified)
-5.39

Another molecule: `Cc1[nH]/c(=N\C(=O)c2csc(NCC(C)C)n2)sc1C`
0.249
